# test.details: The compound was tested for anesthetic potency in tadpoles
# Type: functional, frog
reported.property: EC50
The number alone won't do; follow it with the unit.

Input `CCCCCC1(CCO)N=N1` , output reported EC50.
160 µM
